System: Klebsiella pneumoniae
Details: Concentration 32 ug.mL-1;; ASSAY_TEST Inhibition of Bacterial Growth; detection method Absorption (OD600); MEDIA CAMHB; plate type 384well; NBS; CORNING #3640; time 18 hr
Description: Antibacterial activity against Klebsiella pneumoniae MDR ATCC 70063 (CO-ADD:GN_003); MIC in CAMBH media using NBS plates, by OD(600)
Entries with a potency or affinity are not part of this list.
Entries annotated with measured Inhibition
Please state the figure in %; there is no need to write the unit.

| smiles.structure | Inhibition, % |
| --- | --- |
| COc1ccc(OC)c(NC(=O)Cn2nc3c4cc(-c5ccc(F)cc5)nn4ccn3c2=O)c1 | 1.37 |
| Cc1cc(Br)ccc1NC(=O)Cn1nc2c(Sc3cccc(F)c3)nccn2c1=O | 4.98 |

Enquiry: Bench note: what Inhibition did "CC(C)(C)Sc1ccc2nn(CC(=O)N3CCN(c4ccc(F)cc4)CC3)c(=O)n2n1" show?
Return: 10

Enquiry: Look up Inhibition: "COc1cc(NC(=O)Cn2nc3c(Sc4cccc(F)c4)nccn3c2=O)cc(OC)c1"
Return: 4.9

----------
System: Cryptococcus neoformans
Details: Concentration 32 ug.mL-1; ASSAY_TEST Inhibition of Fungal Growth; detection method Resazurin; Absorption (OD600-OD570); plate type 384well; NBS; CORNING #3640
Description: Antifungal activity against Cryptococcus neoformans H99 ATCC 208821 (CO-ADD:FG_002); MIC in YNB media using NBS plates, by Resazurin OD(600-570)
Potency and affinity values are given separately.
Recorded Inhibition values for a group of compounds are listed next.
Report the figure in % without appending any unit label.

Some compounds with known Inhibition results, for comparison:
| smiles.structure | metric | u | number |
| --- | --- | --- | --- |
| CCCCOc1ccc(-c2cc3c4nnc(SCC(=O)Nc5ccccc5F)n4ccn3n2)cc1 | Inhibition | % | -10.98 |
| O=c1c2nn(Cc3cccc(F)c3)c(=O)n2ccn1-c1ccccc1 | Inhibition | % | -10.61 |
| Cc1nnc2ccc(S(=O)(=O)N(Cc3ccccc3F)c3ccc(F)cc3)cn12 | Inhibition | % | -9.05 |

Enquiry: I have this compound here, "CCCCN(CC)c1ccc2nnc(CCc3nc(-c4ccc5c(c4)OCO5)no3)n2n1" , and I need its recorded Inhibition.
Return: -4.25

----------
System: Candida albicans
Settings: Concentration 32 ug.mL-1; ASSAY_TEST Inhibition of Fungal Growth; detection method Absorption (OD530)
Description: Antifungal activity against Candida albicans ATCC 90028 (CO-ADD:FG_001); MIC in YNB media using NBS plates, by OD630
Potency and affinity values are given separately.
The entries below are paired with their reported Inhibition.
Response body: numeric value in %, unit text excluded.

Observe how each entry below is paired with its result.
| smiles.structure | experimental.target | number |
| --- | --- | --- |
| Cc1ccc(NC(=O)CSc2nc3ccccc3n3c(C)nnc23)c(Br)c1 | Candida albicans | 22.27 |
| COc1ccc(C(=O)CSc2nnc3c(=O)n(-c4ccc(F)cc4)ccn23)cc1 | Candida albicans | 4.42 |
| O=C(CSc1nnc2c(=O)n(-c3ccccc3)ccn12)Nc1ccc(Br)cc1F | Candida albicans | 2.95 |
| COc1ccc(-c2cc3c4nnc(SCC(=O)Nc5cccc(C#N)c5)n4ccn3n2)cc1 | Candida albicans | 13.14 |
| Cc1ccc(NC(=O)Cn2nc3ccc(SC4CCCCC4)nn3c2=O)cc1C | Candida albicans | 4.67 |
| CC(C)c1nnc2c(=O)n(CC(=O)Nc3ccccc3)c3ccccc3n12 | Candida albicans | 3.67 |
| CCCCOc1ccc(-c2cc3c4nnc(SCC(=O)Nc5ccc(OC)cc5)n4ccn3n2)cc1 | Candida albicans | 3.4 |
| CC(C)c1nnc2c(=O)n(CC(=O)Nc3ccc(Br)cc3F)c3ccccc3n12 | Candida albicans | 1.97 |

Then this compound:
Enquiry: GET /values?readout=Inhibition&system=Candida albicans&item= "Cc1ccc(NC(=O)Cn2nc3ccc(SC4CCCCC4)nn3c2=O)cc1"
Return: 2.85

----------
Inhibition values by entry
Tested on: Candida albicans
Conditions: Concentration 32 ug.mL-1; ASSAY_TEST Inhibition of Fungal Growth; detection method Absorption (OD530)
Entries with a potency or affinity are not part of this list.
Write the answer as a number in %, unit excluded.

| smiles.structure | experimental.target | Inhibition / % |
| --- | --- | --- |
| CCOc1ccc(C(=O)CSc2nnc3c(=O)n(-c4ccc(C)c(C)c4)ccn23)cc1 | Candida albicans | 10.64 |

Enquiry: May I ask what Inhibition has been recorded for "CCOc1ccc(NC(=O)Cn2c(=O)c3nnc(C(C)C)n3c3ccccc32)cc1" ?
Return: 1.75

Enquiry: # lookup: Inhibition of "Cc1cc(C)c(C(=O)CSc2nnc3c(=O)n(-c4ccc(F)cc4)ccn23)cc1C"
Return: 4.64

Enquiry: # get_value(readout='Inhibition', item= "CCOC(=O)c1ccc(NC(=O)Cn2nc3c(SCc4ccc(Cl)cc4)nccn3c2=O)cc1" )
Return: 7.78

----------
System: Cryptococcus neoformans
Conditions: Concentration 32 ug.mL-1; ASSAY_TEST Inhibition of Fungal Growth; detection method Resazurin; Absorption (OD600-OD570); plate type 384well; NBS; CORNING #3640
Potency and affinity values are given separately.
metric: Inhibition (%)
Answer format: numeric, % implied, no suffix.

Solved entries:
| smiles.structure | Inhibition / % |
| --- | --- |
| O=C(Cn1nc2c(SCc3ccccc3)nccn2c1=O)NC1CCCC1 | -3.97 |
| CCOC(=O)c1ccc(NC(=O)Cn2nc3ccc(-c4ccc(Cl)cc4)nn3c2=O)cc1 | -7.91 |
| CC(C)c1nnc2c(=O)n(CC(=O)Nc3cccc(Cl)c3)c3ccccc3n12 | -36.03 |
| CCc1ccccc1Sc1nccn2c(=O)n(CC(=O)Nc3cccc(C)c3)nc12 | -3.25 |

Enquiry: I would be grateful if you could share the reported Inhibition for "COc1ccc(N2CCN(C(=O)Cn3nc4ccc(-c5ccc(Cl)cc5)nn4c3=O)CC2)cc1" .
Return: -9.26

Enquiry: # lookup: Inhibition of "COc1ccc(N(Cc2ccc(F)cc2)S(=O)(=O)c2ccc3nncn3c2)cc1"
Return: 2.37

Enquiry: # input molecule: "Cc1ccc(NC(=O)Cn2nc3c(Oc4ccccc4)nccn3c2=O)c(Cl)c1" ; wanted: its Inhibition
Return: -4

Enquiry: What Inhibition value was documented for this molecule, "Cc1ccccc1N1CCN(c2nccn3c(=O)n(CC(=O)NCc4cc(F)cc(F)c4)nc23)CC1" ?
Return: -4.76

Enquiry: So what's the measured Inhibition for this one? "CCc1ccccc1Sc1nccn2c(=O)n(CC(=O)Nc3ccc(Br)cc3)nc12"
Return: -1.52

----------
System: Candida albicans
Conditions: Concentration 32 ug.mL-1; ASSAY_TEST Inhibition of Fungal Growth; detection method Absorption (OD530)
Potency and affinity values are given separately.
Recorded Inhibition by entry
All answers are understood in %, so give the number only.

The examples below pair each entry with its known result.
| smiles.structure | experimental.target | u | Inhibition |
| --- | --- | --- | --- |
| O=S(=O)(c1ccc2nncn2c1)N(Cc1cc(F)cc(F)c1)c1ccc2c(c1)OCO2 | Candida albicans | % | 2.54 |
| COc1ccc(C)cc1NC(=O)CSc1nc2ccccc2n2cnnc12 | Candida albicans | % | 2.39 |
| CCCCn1c(=O)c2sccc2n2c(=O)n(CC(=O)c3cccc(OC)c3)nc12 | Candida albicans | % | 1.56 |

Enquiry: Reported Inhibition for Candida albicans, given "COc1cccc(Oc2nccn3c(=O)n(CC(=O)Nc4ccc5c(c4)OCCO5)nc23)c1" ?
Return: 7.65

Enquiry: Request - read-out Inhibition | tested on Candida albicans | compound "CCc1ccc(N(Cc2ccccc2C)S(=O)(=O)c2cccn3c(CC)nnc23)cc1"
Return: 4.38

Enquiry: Under Candida albicans: Inhibition value of "COc1ccccc1Cn1c(=O)c2sccc2n2c(=O)n(CC(=O)c3ccc(C)cc3C)nc12" ?
Return: 8

Enquiry: Report Inhibition for "COc1cccc(Oc2nccn3c(=O)n(CC(=O)NCc4ccc(SC)cc4)nc23)c1" tested on Candida albicans.
Return: 2.58

----------
System: Klebsiella pneumoniae
Settings: Concentration 32 ug.mL-1;; ASSAY_TEST Inhibition of Bacterial Growth; detection method Absorption (OD600); MEDIA CAMHB; plate type 384well; NBS; CORNING #3640; time 18 hr
Entries with a potency or affinity are not part of this list.
metric: Inhibition (%)
The figure you give is taken to be in %; do not add the unit.

# example entries with known answers
| smiles.structure | experimental.target | u | number |
| --- | --- | --- | --- |
| C=Cc1ccc(CN(c2ccc(C(C)C)cc2)S(=O)(=O)c2cccn3cnnc23)cc1 | Klebsiella pneumoniae | % | 14.46 |
| N#Cc1ccc(NC(=O)Cn2nc3c(SC4CCCCC4)nccn3c2=O)cc1 | Klebsiella pneumoniae | % | 10.51 |
| O=C(Cn1nc2c(Oc3ccc(Cl)cc3)nccn2c1=O)Nc1ccc2c(c1)OCO2 | Klebsiella pneumoniae | % | 8.17 |

Enquiry: Recorded Inhibition of "COC(=O)c1ccccc1NC(=O)Cn1nc2c(Oc3cccc(OC)c3)nccn2c1=O" , please.
Return: -16.2

Enquiry: I am curious: what Inhibition value has been reported for "COc1ccc(-c2cc3c4nnc(CCC(=O)N5CCN(c6ccccc6F)CC5)n4ccn3n2)cc1" ?
Return: 15.22

Enquiry: Tell me the measured Inhibition of "CCCCN(CC)c1ccc2nnc(CCc3nc(-c4ccc5c(c4)OCO5)no3)n2n1" , please.
Return: 3.82
